# test method notes: NCI Yeast Anticancer Drug Screen. Data for the rad50 strain (AID 155);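 also: 0% = growth of vehicle-only cultures of the same strain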
# run parameters: S. cerevisiae rad50 strain growth inhibition; at 5.0 µM (retest, dose inferred, filed as 0.5); active compounds read high
About 79,000 compounds went through this panel and 15% of them were active in at least one assay; those are over-represented in the sample as a whole. Activity calls are given as the source filed them. Rule as the data show it: active = growth inhibition above about 70%; inactive = the rest.
attribute measured: growth inhibition

Q: // fetch growth inhibition given entry CCCCCCCCCCCCNC(=O)NCC(OCC)OCC
A: -3% (inactive)

Q: // fetch growth inhibition given entry CC(=O)CC1CCC(=O)/C=C/C(=O)OC(CC(C)=O)CCC(=O)/C=C/C(=O)O1 (stereo not drawn)
A: 20% (inactive)

Q: // fetch growth inhibition given entry CC(C)(C)C(OC(=O)Nc1ccccc1)C(C)(C)C
A: -1% (inactive)

Q: // fetch growth inhibition given entry CCC(C)(C)c1ccc(OCCO)c([N+](=O)[O-])c1
A: 10% (inactive)

Q: // fetch growth inhibition given entry Cc1ccc(S(=O)(=O)/C=C2\COc3ccccc3C2=O)cc1
A: 51% (inactive)

Q: // fetch growth inhibition given entry NC(=O)NC(=O)N/N=C/c1ccc([N+](=O)[O-])o1
A: 2% (inactive)

Q: // fetch growth inhibition given entry O=C1OS(=O)(=O)c2cc3c(cc21)C1C(C2C3C3(Cl)C(Cl)=C(Cl)C2(Cl)C3(Cl)Cl)C2(Cl)C(Cl)=C(Cl)C1(Cl)C2(Cl)Cl (stereo not drawn)
A: -18% (inactive)

Q: // fetch growth inhibition given entry CN1CCCC1c1cccc(Br)c1 (stereo not drawn)
A: -163% (inactive)

Q: // fetch growth inhibition given entry O=C1OC(C2OC(=O)C(=O)C2C(=O)c2ccc(Cl)c(Cl)c2)C(C(=O)c2ccc(Cl)c(Cl)c2)C1=O (stereo not drawn)
A: 7% (inactive)

Q: // fetch growth inhibition given entry c1ccc2c(B(c3cccc4ccccc34)c3cccc4ccccc34)cccc2c1
A: 0% (inactive)

Q: // fetch growth inhibition given entry CC(CCC(=O)O)(Nc1ccc([N+](=O)[O-])cc1[N+](=O)[O-])C(=O)O (stereo not drawn)
A: 51% (inactive)

Q: // fetch growth inhibition given entry Cc1ccc(N2C(=O)C(Cl)=C(Cl)C2=O)cc1
A: 11% (inactive)

Q: // fetch growth inhibition given entry N/C(=N\OC(=O)Nc1ccccc1)c1ccccc1
A: 7% (inactive)

Q: // fetch growth inhibition given entry O=C(c1ccccc1)c1ccc(O)cc1O
A: -5% (inactive)

Q: // fetch growth inhibition given entry O=[N+]([O-])c1ccc2c(c1)[nH]c1ccccc12
A: -138% (inactive)

Q: // fetch growth inhibition given entry C=C(CN1CCOCC1)C(=O)c1ccccc1
A: -23% (inactive)

Q: // fetch growth inhibition given entry CCCCCCCCN/N=C(/C)CCCCCO
A: -6% (inactive)

Q: // fetch growth inhibition given entry CCC(O)C(O)(c1ccccc1)c1nc2ccccc2s1 (stereo not drawn)
A: -9% (inactive)

Q: // fetch growth inhibition given entry CSCCC(NC(=O)C(CCSC)NS(=O)(=O)Cc1ccccc1)C(=O)O (stereo not drawn)
A: -6% (inactive)

Q: // fetch growth inhibition given entry ClC1CC[N-]CC1.ClC1CC[N-]CC1.[Cl][Pt+2]([Cl])([Cl])[Cl]
A: 50% (inactive)

Q: // fetch growth inhibition given entry O=c1c2cc3ccccc3cc2c(=O)n2n1CC=CC2
A: 8% (inactive)

Q: // fetch growth inhibition given entry O=C(CC1C=Cc2ccccc2N1C(=O)c1ccccc1)c1ccccc1 (stereo not drawn)
A: 1% (inactive)

Q: // fetch growth inhibition given entry O=C(NN1C(=O)C(Cl)C1c1ccc(O)cc1)c1ccccc1O (stereo not drawn)
A: -4% (inactive)

====

# test method notes: NCI Yeast Anticancer Drug Screen. Data for the cln2 rad14 strain (AID 165);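 also: 0% = growth equal to vehicle treated cultures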
# run parameters: S. cerevisiae cln2 rad14 strain, at 50.0 µM, active compounds read high
Compounds without any hit were thinned out: in the full panel of roughly 79,000, 15% have a hit.
attribute measured: growth inhibition (%)
Value expressed in %; do not type the unit.

Q: // fetch growth inhibition given entry COC(=O)C1(Cc2ccc3c(c2)CCC3)Cc2ccccc2C1O (configuration not stated)
A: 89.8

Q: // fetch growth inhibition given entry CCc1cccc(C(C)(C)C)c1NC(=S)/N=C/C(C(=O)c1ccccc1)=C(\O)c1ccccc1
A: 48.1

Q: // fetch growth inhibition given entry ONC1=Nc2ccccc2OCc2cc(Br)c(Br)cc2COc2ccccc2N=C1NO
A: 89.4

Q: // fetch growth inhibition given entry Cc1cc(C)c(N2C(=O)C=CC2=O)c(C)c1
A: 99.2

Q: // fetch growth inhibition given entry CCCn1cnc2c(SCc3ccc(Cl)cc3Cl)nc(N)nc21
A: 97.2

Q: // fetch growth inhibition given entry Cc1ccc(S(=O)(=O)/C=C2\COc3ccccc3C2=O)cc1
A: 99

Q: // fetch growth inhibition given entry N#CC1=C(N)OC(/C=C/c2ccccc2)=C(C#N)C1c1ccccc1 (configuration not stated)
A: 101

Q: // fetch growth inhibition given entry COc1ccc(C2CC(=O)CC(=O)C2)cc1
A: -3.35

Q: // fetch growth inhibition given entry CC(=O)n1c(=S)n(C(C)=O)c2ccccc21
A: 67.8

Q: // fetch growth inhibition given entry CCOC(=O)c1c(N)c(=O)n2c3c(cccc13)CC2
A: 98.7

Q: // fetch growth inhibition given entry O=C1C(N2CCOCC2)=C(Cl)C(=O)c2ncccc21
A: 89

Q: // fetch growth inhibition given entry CCCCCCc1ccc(O)c(Cl)c1
A: 44.1

====

# test method notes: NCI Yeast Anticancer Drug Screen. Data for the bub3 strain (AID 167)
# run parameters: S. cerevisiae bub3 mutant strain, at 50.0 µM (retest, dose inferred, filed as 5.0)
This is part of a sample that, as a whole, favours compounds with a hit. Of some 79,000 tested, about 15% had one in any assay. Activity calls are given as the source filed them. No stated cut-off is given here; in the data, active means growth inhibition above about 70%; inactive means the rest.
The reply should name one outcome from active, inactive

Q: How was Nc1ccc(O)c(=O)cc1 classified in this test?
A: inactive

Q: How was Cc1ccc2c(c1)C1(SC(C)C(=O)N1c1ccc(F)cc1)C(=O)N2 (stereo not drawn) classified in this test?
A: active

Q: How was CCCCCCCCCCCCCCCC(=O)N1CC[N+](C)(CC2=CC3(Cl)C(Cl)=C(Cl)C2(Cl)C3(Cl)Cl)CC1 (stereo not drawn) classified in this test?
A: active

Q: How was [Br][Pt+2][Br].[NH-]c1cccc(I)c1.[NH-]c1cccc(I)c1 classified in this test?
A: inactive

Q: How was CCOC(=O)NC(=S)Nc1ccsc1 classified in this test?
A: inactive

Q: How was O=C1C(c2ccccc2)CS(=O)(=O)CC1c1ccccc1 (stereo not drawn) classified in this test?
A: inactive

Q: How was Cc1cccc2c(CC(=O)O)c[nH]c12 classified in this test?
A: active

Q: How was O=C(CCN1CCCCC1)N1CCc2c([nH]c3ccccc23)C1c1cccnc1 (stereo not drawn) classified in this test?
A: inactive

Q: How was O=C(O)c1ccccc1/C=C1\Cc2ccc3c(c2C1=O)CCCC3 classified in this test?
A: inactive

Q: How was CC(C)=CC[P+](CCCCCC[P+](CC=C(C)C)(c1ccccc1)c1ccccc1)(c1ccccc1)c1ccccc1 classified in this test?
A: inactive

Q: How was CN(C)c1ccc(C(c2cc3c(cc2O)OCO3)N2CCCC2)cc1 (stereo not drawn) classified in this test?
A: active

Q: How was O=C(O)C1CCc2ccc3ccccc3c2C1c1cccc2ccccc12 (stereo not drawn) classified in this test?
A: active

Q: How was COc1ccc(/C(C#N)=C/c2ccncc2)cc1 classified in this test?
A: inactive

Q: How was O=S(=O)(Nc1ccccc1)c1ccccc1C=C(c1ccccc1)c1ccccc1 classified in this test?
A: active

Q: How was O=C([O-])c1ccccc1[I+]c1ccc(C2CCCCC2)cc1 classified in this test?
A: inactive

Q: How was CCN(CC)CCNc1c(O)cc(C)c2sc3ccccc3c(=O)c12 classified in this test?
A: active

Q: How was COc1ccc(/C=C/c2ccnnc2)c(OC)c1OC classified in this test?
A: inactive

Q: How was Nc1ccc2nc(Nc3ccc(Cl)c(Cl)c3)cnc2c1 classified in this test?
A: active

Q: How was O=C1c2sccc2-c2cccc3cccc1c23 (tested in a mixture with another compound) classified in this test?
A: active

Q: How was CCN(CC)Cc1cc(Nc2c3ccccc3nc3c2[nH]c2ccccc23)ccc1O classified in this test?
A: inactive

Q: How was Nc1ccc2nc(N)sc2c1 classified in this test?
A: active

Q: How was O=C1c2ccccc2C2N1CCCN2C(=O)c1sc2ccccc2c1Cl (stereo not drawn) classified in this test?
A: active

Q: How was CNC(=O)N(C)/N=C/c1ccc([N+](=O)[O-])o1 classified in this test?
A: inactive

====

# test method notes: NCI Yeast Anticancer Drug Screen. Data for the mlh1 rad18 strain (AID 175)
# run parameters: S. cerevisiae mlh1 rad18 strain growth inhibition; at 5.0 µM (retest, dose inferred, filed as 0.5)
About 79,000 compounds went through this panel and 15% of them were active in at least one assay; those are over-represented in the sample as a whole. Active and inactive are the calls of the source. Cut-off read from the data, not from the text of the source: active = growth inhibition above about 70%; inactive = the rest.
The reply should name one outcome from active, inactive

Q: How was CCS(=O)(=O)/C=C/c1ccncc1 classified in this test?
A: inactive

Q: How was COc1ccc(NC(=O)CSC(N)=O)cc1 classified in this test?
A: inactive

Q: How was Oc1ccc(N=Nc2ccccc2)c(O)c1.Oc1ccc(N=Nc2ccccc2)c(O)c1.[Cu] classified in this test?
A: inactive

Q: How was CCC[CH2][Sn]([Cl])([CH2]CCC)[S]/C(C#N)=N/N=C/c1ccc(N(C)C)cc1 classified in this test?
A: active

Q: How was CC(CCC(=O)O)(Nc1ccc([N+](=O)[O-])cc1[N+](=O)[O-])C(=O)O (stereo not given) classified in this test?
A: inactive

Q: How was C#CCNC1=CC(=O)CCC1 classified in this test?
A: inactive

Q: How was COc1ccc2nc3cc(Cl)ccc3c(Nc3nccs3)c2c1 classified in this test?
A: inactive

Q: How was CCOSc1ccccc1 classified in this test?
A: inactive

Q: How was CCC(C)(C)NCCCCCNc1cc(OC)cc2cccnc12 classified in this test?
A: inactive

Q: How was O=C(O)CCCCCCC(=O)CCl classified in this test?
A: inactive

Q: How was Nc1ccccc1N=Cc1ccccc1O classified in this test?
A: inactive

Q: How was O=[N+]([O-])c1cccc2c(O)cccc12 classified in this test?
A: inactive

Q: How was O=C(NCCCl)N1CCC(CN=c2cc3n(-c4ccc(Cl)cc4)c4ccccc4nc-3cc2Nc2ccc(Cl)cc2)CC1 classified in this test?
A: inactive

Q: How was O=c1[nH]c(CN2CCCCC2)nn1-c1ccccc1 classified in this test?
A: inactive

Q: How was ON(C(=Nc1ccc(Cl)cc1)c1ccccc1)c1ccccc1 classified in this test?
A: inactive

Q: How was COC(=O)c1c2c(cc3c1CC1(Cc4cc5c(c(C)c4C1)CCC5)C3)CCC2 (stereo not given) classified in this test?
A: inactive

Q: How was CCN(CC)c1cc(Nc2c3ccc(Cl)cc3nc3cc(Cl)ccc23)ccc1O classified in this test?
A: inactive

Q: How was O=[N+]([O-])c1ccc(S)c(Cl)c1 classified in this test?
A: inactive

Q: How was COC(=O)CCc1c(Cc2ccc[nH]2)[nH]c(C(=O)OCc2ccccc2)c1C classified in this test?
A: inactive

Q: How was CCCC(=O)Oc1ccc(OCc2ccccc2)cc1 classified in this test?
A: inactive

Q: How was OCc1ccc2c(c1)CC1(C2)Cc2cc3c(cc2C1O)CCC3 (stereo not given) classified in this test?
A: inactive

Q: How was CCCCCCCCCCCCOC(=O)C[n+]1cccc(C(=O)Nc2ccccc2)c1 classified in this test?
A: active

Q: How was CN(c1ccccc1)N(C)c1ccccc1 classified in this test?
A: inactive

Q: How was OC(C/C=N/Nc1ccccc1)(C(F)(F)Cl)C(F)(F)Cl classified in this test?
A: inactive

Q: How was O=C(NC1CCN(Cc2ccccc2)CC1)c1cccc(I)c1 classified in this test?
A: active
